# tested-system: Cytochrome P-450 (1A2) (Homo sapiens)
# Construct: 0.2 mg protein/mL human liver microsomes
# Sequence (P05177 1-516): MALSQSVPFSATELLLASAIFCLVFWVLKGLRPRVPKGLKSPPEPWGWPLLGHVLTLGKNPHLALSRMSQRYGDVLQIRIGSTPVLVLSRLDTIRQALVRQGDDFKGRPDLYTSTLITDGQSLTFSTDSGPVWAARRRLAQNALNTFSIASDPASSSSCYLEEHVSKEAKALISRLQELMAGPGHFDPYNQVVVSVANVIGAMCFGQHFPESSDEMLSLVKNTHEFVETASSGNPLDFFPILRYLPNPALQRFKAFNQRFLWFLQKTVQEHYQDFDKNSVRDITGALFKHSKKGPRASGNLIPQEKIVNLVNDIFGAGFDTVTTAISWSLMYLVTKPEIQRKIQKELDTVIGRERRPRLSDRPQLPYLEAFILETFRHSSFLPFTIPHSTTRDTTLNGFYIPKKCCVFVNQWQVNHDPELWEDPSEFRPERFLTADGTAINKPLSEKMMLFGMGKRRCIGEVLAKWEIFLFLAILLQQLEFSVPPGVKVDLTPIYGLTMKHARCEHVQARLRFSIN
# experimental-protocol: Test for Cytochrome P-450 (1A2) enzyme inhibition using human liver microsomes
# applied-conditions: human liver microsomes, substrate phenacetin, acetaminophen production, mean of two cases
property: IC50

May I ask what IC50 has been recorded for C1=Cc2cccc(OCC3CNCCO3)c2C1.Cl (single isomer, unassigned; (+)) [(+)IDX, hydrochloride] ?
8.1 µM
